System: Trypanosoma brucei
Test: Trypanosoma brucei 72 hour study
Assay type: functional, organism-based
Set-up: scale not given: in the data most compounds retested in dose-response had high values
Conditions: 30.3 µM; […]
Screen size: about 66,000 compounds; about 960 (1.5%) showed an effect of 50% or more. Many of the other results were omitted from the sample, so strong results are more common in it than they were.
# Percent Effect annotations
State just the number; it will be interpreted in %.

Here's what some known entries look like.
Req: Provide the documented Percent Effect with Trypanosoma brucei as the system for COCCN1CCOCC12CCN(c1cnccn1)CC2.O=C(O)C(F)(F)F
Resp: -82.27

Req: Provide the documented Percent Effect with Trypanosoma brucei as the system for Cc1nc(CN2CCCC(CCc3ccc(F)c(F)c3)C2)c[nH]1 (stereo not given)
Resp: 50.38

Req: Provide the documented Percent Effect with Trypanosoma brucei as the system for CN1[C@@H](C(=O)NCC2CC2)C[C@@H]2CN(Cc3ccsc3)C[C@@H]21.O=C(O)C(F)(F)F.O=C(O)C(F)(F)F
Resp: -75.19

Others:
Req: Provide the documented Percent Effect with Trypanosoma brucei as the system for Cc1n[nH]c(C)c1C1COCCN1C(=O)c1cc(F)ccc1F (stereo not given)
Resp: -0.3197

Req: Provide the documented Percent Effect with Trypanosoma brucei as the system for O=C(O)C(F)(F)F.O=C(O)c1c(-c2cncnc2)ncc2c1CCN(CC1CCOC1)C2 (stereo not given)
Resp: -18.52

Req: Provide the documented Percent Effect with Trypanosoma brucei as the system for Cc1cccc(OCc2nnc(SCC3CCCN(C)C3)o2)c1 (stereo not given)
Resp: -11.54

Req: Provide the documented Percent Effect with Trypanosoma brucei as the system for CC(=O)NC1CCN(c2cc(C3CCNCC3)ccn2)CC1.Cl.Cl
Resp: -5.403

Req: Provide the documented Percent Effect with Trypanosoma brucei as the system for CS(=O)(=O)N1CCO[C@H]2[C@@H](Oc3ncccc3F)CC[C@@H]21.O=C(O)C(F)(F)F
Resp: 12.73

Req: Provide the documented Percent Effect with Trypanosoma brucei as the system for Cc1c(C(=O)N2CCCC(n3cccn3)C2)nnn1-c1ccccc1 (stereo not given)
Resp: -3.586

Req: Provide the documented Percent Effect with Trypanosoma brucei as the system for Cc1nc(CN2CCCC(CCc3ccccc3F)C2)c[nH]1 (stereo not given)
Resp: -5.303

* * *

Tested on: Trypanosoma brucei
Assay: Trypanosoma brucei 72 hour study
Type: functional, organism-based
Design: scale not given: in the data most compounds retested in dose-response had high values
Conditions: 30 µM; 30.03 µM
The campaign covered roughly 66,000 compounds. About 960 (1.5%) showed an effect of 50% or more. The full list was thinned out, with strong results kept by preference.
I'd appreciate it if you marked entries T when Percent Effect is lower than 70% and F when it is not.

Req: Strictly below 70% in Percent Effect? Cc1sc2nc(CCN)nc(N(C)CCCC3CCCO3)c2c1C (stereo unspecified)
Resp: F

Others:
Req: Strictly below 70% in Percent Effect? Cc1[nH]/c(=N\C(=O)c2csc(NCC(C)C)n2)sc1C
Resp: F

Req: Strictly below 70% in Percent Effect? COCCN(Cc1cccs1)c1nc(CCN)nc2ccccc12
Resp: T

Req: Strictly below 70% in Percent Effect? Cc1cs/c(=N/C(=O)c2csc(NCC(C)C)n2)[nH]1
Resp: F

Req: Strictly below 70% in Percent Effect? Cc1cnc(NC(=O)c2csc(NCC(C)C)n2)s1
Resp: T

Req: Strictly below 70% in Percent Effect? COCCN(CC1CC1)c1nc(CCN)nc2ccccc12
Resp: T
